# procedure summary: Cytotoxicity against African green monkey Vero E6 cells assessed as cell viability at 100 uM measured after 48 hrs by MTT assay relative to control
# Assay type: toxicity, cell-based, Vero C1008
# condition context: chlorocebus sabaeus, read-out: Activity
Criterion: viability at 48 h, 100 µM strictly less than 90%. Met: True. Not met: False.

Identify whether the compound `O=C(NNc1nc(-c2ccc(Br)cc2)cs1)c1ccc([N+](=O)[O-])cc1` records viability at 48 h, 100 µM below 90%.
False

Identify whether the compound `CCOC(=O)c1sc(NNC(=O)c2ccc(Br)cc2)nc1C` records viability at 48 h, 100 µM below 90%.
True

Identify whether the compound `O=C(NNc1nc(-c2ccc(Br)cc2)cs1)c1ccc(Cl)cc1` records viability at 48 h, 100 µM below 90%.
True

Identify whether the compound `O=C(NNc1nc(-c2ccc(Cl)cc2)cs1)c1ccc(Cl)cc1` records viability at 48 h, 100 µM below 90%.
True

Identify whether the compound `Cc1ccc(-c2csc(NNC(=O)c3ccc([N+](=O)[O-])cc3)n2)cc1` records viability at 48 h, 100 µM below 90%.
True

Identify whether the compound `O=C(NNc1nc(-c2ccc(Cl)cc2)cs1)c1ccc(F)cc1` records viability at 48 h, 100 µM below 90%.
True
